- ASSAY METHOD TEXT: Cell viability assay
- Format: cell-based
- EXPERIMENTAL SETUP: human, HFF cells, Cell‐based assays [at 10 μM] Cell viability %, 10 μM, triplicate, mean
Kindly state viability at 7 days, 10 µM for each of the entries shown.
Record the value in %, omitting the unit from your answer.

q: Fill in: viability at 7 days, 10 µM of O=C(NCc1ccc(Cl)c(Cl)c1)c1nc(Cl)c2cccnc2c1O [Compound 15b] is ___
a: 95

q: Now this one: COc1cccc(-c2nc(C(=O)NCc3ccc(C)cc3)c(O)c3ncccc23)c1 [Compound 16b]
a: 76

q: Record: O=C(O)c1nc(-c2ccc(C(F)(F)F)cc2)c2cccnc2c1O [Compound 14]
a: 97

q: How about COC(=O)c1nc(Cl)c2cccnc2c1O [Compound 13] ?
a: 96

q: Now try Cc1ccc(CNC(=O)c2nc(Cl)c3cccnc3c2O)cc1 [Compound 15d] .
a: 96

q: Ok, now COCCNC(=O)c1nc(Cl)c2cccnc2c1O [Compound 15f]
a: 96

q: Also, O=C(NCc1ccc(F)c(Cl)c1)c1nc(Cl)c2cccnc2c1O [Compound 15c] please.
a: 100

q: Note, next up: O=C(NCc1ccc(F)cc1)c1nc(Cl)c2cccnc2c1O [Compound 15a]
a: 97

q: Subsequent entry: Cc1ccc(CNC(=O)c2nc(-c3ccccc3)c3cccnc3c2O)cc1 [Compound 16a]
a: 99
